target: angiotensin-converting enzyme (ACE) (Homo sapiens, UniProt P12821); assay: Angiotensin-converting enzyme (ACE) inhibitory assay (N-hippuryl-His-Leu substrate, HPLC detection of hippuric acid); type: biochemical; details: 37 °C, 60 min, captopril positive control, read-out: IC50 against angiotensin-converting enzyme (ACE)
Sequence (P12821 30-1306, species assumed): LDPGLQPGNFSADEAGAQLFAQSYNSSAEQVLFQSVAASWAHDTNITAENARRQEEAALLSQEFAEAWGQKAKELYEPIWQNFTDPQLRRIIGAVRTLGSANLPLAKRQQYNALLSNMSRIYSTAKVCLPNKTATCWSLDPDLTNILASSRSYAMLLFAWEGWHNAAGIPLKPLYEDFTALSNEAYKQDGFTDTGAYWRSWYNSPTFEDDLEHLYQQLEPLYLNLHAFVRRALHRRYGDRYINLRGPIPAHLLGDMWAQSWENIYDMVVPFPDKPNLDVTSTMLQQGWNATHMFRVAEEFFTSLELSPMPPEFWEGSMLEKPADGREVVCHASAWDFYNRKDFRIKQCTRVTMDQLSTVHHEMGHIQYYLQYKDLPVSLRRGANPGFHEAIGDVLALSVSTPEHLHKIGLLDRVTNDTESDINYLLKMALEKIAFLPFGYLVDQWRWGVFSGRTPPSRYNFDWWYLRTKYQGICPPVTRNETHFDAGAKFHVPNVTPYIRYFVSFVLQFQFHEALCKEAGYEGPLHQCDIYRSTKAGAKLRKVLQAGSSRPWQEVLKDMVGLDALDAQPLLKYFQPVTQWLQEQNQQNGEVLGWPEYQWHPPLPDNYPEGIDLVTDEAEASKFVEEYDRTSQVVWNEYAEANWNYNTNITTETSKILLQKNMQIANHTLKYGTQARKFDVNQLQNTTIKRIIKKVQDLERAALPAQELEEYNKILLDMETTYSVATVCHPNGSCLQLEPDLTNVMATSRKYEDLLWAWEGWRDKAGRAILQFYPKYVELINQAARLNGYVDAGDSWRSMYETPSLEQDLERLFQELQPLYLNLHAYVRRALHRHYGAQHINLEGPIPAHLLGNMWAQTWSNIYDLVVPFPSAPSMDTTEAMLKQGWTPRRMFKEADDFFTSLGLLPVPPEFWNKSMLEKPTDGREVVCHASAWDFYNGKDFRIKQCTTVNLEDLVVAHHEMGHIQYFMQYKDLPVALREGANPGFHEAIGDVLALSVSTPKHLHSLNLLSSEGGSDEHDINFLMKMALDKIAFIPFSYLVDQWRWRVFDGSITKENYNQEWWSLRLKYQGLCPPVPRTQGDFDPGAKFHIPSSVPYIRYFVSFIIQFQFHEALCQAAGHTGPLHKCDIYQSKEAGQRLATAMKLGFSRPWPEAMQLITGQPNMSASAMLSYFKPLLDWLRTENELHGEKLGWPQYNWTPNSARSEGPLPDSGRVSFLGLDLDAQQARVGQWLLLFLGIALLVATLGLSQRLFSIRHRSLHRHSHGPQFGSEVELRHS
Measured pIC50 accompanies every entry in the list below.
Quick note: pIC50 means taking -log10 of the concentration in moles per liter.

COC12CC3(O)C(SC)C=CC(OC(C)=O)C3N1C(=O)C(CO)(SC)N(C)C2=O (stereo not drawn)
4.46

Looking for the measured pIC50 of CSC1C=CC(OC(C)=O)C2N3C(=O)C(CO)(SC)N(C)C(=O)C3(O)CC12O (stereo not drawn) , can you help?
4.51

Also need CSC1(CO)C(=O)N2C3C(OC(C)=O)C(=O)C=CC3(O)CC2(SC)C(=O)N1C (stereo not drawn) , thanks.
4.54
